test.name: Microsomal stability assay, human liver microsomes
Type: in vitro ADME
test.settings: predicted from Clint, Qh 21 mL/min/kg
Kindly supply the reported Clhep (hepatic clearance), Human values for the records listed here.
Numbers only, in mL/min/kg body weight.

INSERT INTO measurements (query_smiles, observed_property, value_observed) VALUES
  ('O=C(N[C@@H](Cn1ccnc1)c1ccc(-c2ccc(F)cc2)cc1Cl)c1ccc(-c2nnc(-c3ccccn3)o2)cc1', 'Clhep (hepatic clearance), Human', 10.8),
  ('O=C(N[C@@H](Cn1ccnc1)c1ccc(Cl)cc1Cl)c1ccc(-c2nnc(-c3ccc(F)c(F)c3)o2)cc1', 'Clhep (hepatic clearance), Human', 5.54);

Pending compound:
Respond only with Clhep (hepatic clearance), Human recorded for [2H]c1c([2H])c([2H])c(-c2ccc([C@H](Cn3ccnc3)NC(=O)c3ccc(-c4nnc(-c5ccccc5)o4)cc3)c(Cl)c2)c([2H])c1[2H]
10.6

----------
test.name: Microsomal stability assay, mouse liver microsomes
Type: in vitro ADME, mouse (male CD-1)
test.settings: predicted from Clint, Qh 90 mL/min/kg
Please respond with reported Clhep (hepatic clearance), Mouse for every item in the list.
One number for each entry, in mL/min/kg body weight.

Reference set, count: 2
INSERT INTO assay_data (molecule, observed_property, value_observed) VALUES
  ('CS(=O)(=O)c1ccc(-c2ccc([C@H](Cn3ccnc3)NC(=O)c3ccc(-c4nnc(-c5ccccc5)o4)cc3)c(Cl)c2)cc1', 'Clhep (hepatic clearance), Mouse', 52.6),
  ('O=C(N[C@@H](Cn1ccnc1)c1ccc(-c2ccccc2)cc1Cl)c1ccc(-c2nnc(-c3ccccc3)o2)cc1', 'Clhep (hepatic clearance), Mouse', 24.8);

Report Clhep (hepatic clearance), Mouse, nothing else, for this molecule: O=C(N[C@@H](Cn1ccnc1)c1ccc(-c2ccc(F)cc2)cc1F)c1ccc(-c2nnc(-c3ccccc3)o2)cc1 [VFV, reference compound]
55.6

----------
So I've got a bunch of compounds here, and I need their Clhep (hepatic clearance), Rat values.
test.name: Microsomal stability assay, rat liver microsomes
Assay type: in vitro ADME, rat (male Sprague-Dawley)
test.settings: predicted from Clint, Qh 70 mL/min/kg
One number for each entry, in mL/min/kg body weight.

Fill in Clhep (hepatic clearance), Rat for each of the 3 compounds listed.
1. [2H]c1c([2H])c([2H])c(-c2ccc([C@H](Cn3ccnc3)NC(=O)c3ccc(-c4nnc(-c5ccccc5)o4)cc3)c(Cl)c2)c([2H])c1[2H]
2. O=C(N[C@@H](Cn1ccnc1)c1ccc(-c2ccccc2)cc1Cl)c1ccc(-c2nnc(-c3ccccc3)o2)cc1
3. O=C(N[C@@H](Cn1ccnc1)c1ccc(Cl)cc1Cl)c1ccc(-c2nnc(-c3ccc(F)c(F)c3)o2)cc1

45.6
46.9
21.4

Batch request: Clhep (hepatic clearance), Rat per item, same order as input.
1. O=C(N[C@@H](Cn1ccnc1)c1ccc(-c2ccc(F)cc2)cc1F)c1ccc(-c2nnc(-c3ccccc3)o2)cc1 [VFV, reference compound]
2. O=C(N[C@@H](Cn1ccnc1)c1ccc(-c2ccc(F)cc2)cc1Cl)c1ccc(-c2nnc(-c3ccccn3)o2)cc1

14.2
20.8

----------
test.name: PK and tissue distribution assay, single oral dose
Format: in vivo, BALB/c mice
test.settings: BALB/c, mouse, lung, po, 25 mg/kg
observed.property: concentration at 4 h (µM)
One number for each entry, in µM.

Identify the reported concentration at 4 h for the following entry. [2H]c1c([2H])c([2H])c(-c2ccc([C@H](Cn3ccnc3)NC(=O)c3ccc(-c4nnc(-c5ccccc5)o4)cc3)c(Cl)c2)c([2H])c1[2H]
26

Origin of the recorded values: paper PMC6467724
